Molecular target: furin, P09958;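 further: purified furin at 1:10 enzyme:substrate in 50 mM HEPES pH 7.5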
Sequence (P09958 whole entry): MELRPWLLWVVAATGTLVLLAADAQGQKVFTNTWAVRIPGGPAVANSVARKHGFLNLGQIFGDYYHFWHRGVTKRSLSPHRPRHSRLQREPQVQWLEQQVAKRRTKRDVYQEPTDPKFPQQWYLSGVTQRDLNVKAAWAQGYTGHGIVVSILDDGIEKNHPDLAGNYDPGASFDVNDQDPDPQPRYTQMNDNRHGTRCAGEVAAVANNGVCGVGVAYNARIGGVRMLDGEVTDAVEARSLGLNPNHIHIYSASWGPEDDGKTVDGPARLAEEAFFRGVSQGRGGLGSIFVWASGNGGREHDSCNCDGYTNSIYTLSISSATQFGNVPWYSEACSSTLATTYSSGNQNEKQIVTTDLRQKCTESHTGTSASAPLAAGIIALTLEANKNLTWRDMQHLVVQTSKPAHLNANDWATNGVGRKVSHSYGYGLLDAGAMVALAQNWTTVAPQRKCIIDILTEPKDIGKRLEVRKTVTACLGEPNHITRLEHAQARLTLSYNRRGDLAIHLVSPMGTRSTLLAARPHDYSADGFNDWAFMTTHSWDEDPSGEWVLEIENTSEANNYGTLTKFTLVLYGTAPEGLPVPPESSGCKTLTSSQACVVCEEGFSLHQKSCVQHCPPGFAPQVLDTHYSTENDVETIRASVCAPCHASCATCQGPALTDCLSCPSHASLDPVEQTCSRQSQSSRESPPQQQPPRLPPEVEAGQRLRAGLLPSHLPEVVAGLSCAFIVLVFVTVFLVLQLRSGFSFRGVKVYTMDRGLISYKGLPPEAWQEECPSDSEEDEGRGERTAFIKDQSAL
Assay: furin cleavage Z-score vs untreated control; higher = more cleavage, active = 3.5 or more, inactive = 1 or less, 8 variable residues between constant flanks
Details: 30 min
This is one part of the list. No count for the full screen is at hand.
Log the outcome using a class from active, inactive

• CARSRRDREEAGNASASA [FS-3236] = active
• CARSRRNDEEAGNASASA [FS-2608] = inactive

Assay result, entry CAEVPCHRPLAGNASASA [HC2405] — outcome?
inactive

And the next one, CALAGLSTLPAGNASASA [HC1048] ?
inactive

CARSRRGVSEAGNASASA [FS-2461] , same question.
active
